# study.target: recombinant IL4I1 (Homo sapiens (Human))
# Sequence (Q96RQ9 22-567): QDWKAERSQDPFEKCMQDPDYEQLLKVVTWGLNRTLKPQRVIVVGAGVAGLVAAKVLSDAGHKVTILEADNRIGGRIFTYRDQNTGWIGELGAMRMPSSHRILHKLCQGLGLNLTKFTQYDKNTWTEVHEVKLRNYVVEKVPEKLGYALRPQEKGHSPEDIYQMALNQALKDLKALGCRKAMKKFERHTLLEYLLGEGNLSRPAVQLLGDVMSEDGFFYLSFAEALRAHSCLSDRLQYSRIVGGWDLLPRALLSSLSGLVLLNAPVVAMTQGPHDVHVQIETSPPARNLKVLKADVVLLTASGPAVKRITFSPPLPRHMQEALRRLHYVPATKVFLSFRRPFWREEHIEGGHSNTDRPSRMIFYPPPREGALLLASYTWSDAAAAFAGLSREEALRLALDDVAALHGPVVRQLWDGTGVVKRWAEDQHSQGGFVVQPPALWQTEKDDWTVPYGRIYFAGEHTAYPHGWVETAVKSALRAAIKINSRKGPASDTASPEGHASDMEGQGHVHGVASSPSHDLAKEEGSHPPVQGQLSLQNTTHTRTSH
# procedure.summary: IL4I1 Enzymatic Assay (Amplex Red/HRP coupled H2O2 detection)
# test.parameters: 1 nM IL4I1, 1 mM each Phe/Tyr/Trp, four-hour pre-incubation, 120 minutes reaction, top compound concentration of 10000 nM
Recorded EC50, one value per entry.
quantity.name: EC50 (nM)

1. C[C@@H]1Oc2ccc(Cc3cc4ccccc4[nH]c3=O)cc2NC1=O (stereo in doubt) [Example 142B]    81.4
2. CC1(CO)CN(c2ccc(Cc3cc4ccccc4[nH]c3=O)cn2)C(=O)O1 (racemic)    18.9
3. Cc1nn(C)cc1-c1nnc(Cc2cc3ccccc3[nH]c2=O)o1    30.7
4. CC(C)(O)CN1Cc2ccc(Cc3cc4ccccc4[nH]c3=O)cc2C1=O    29.6
